conditionDescription: basic group
quantityMeasured: pKa
Give bare numbers.

Worked examples follow.
# compound, testResult
rows = [
    ("Nc1ccc2ccnnc2c1", 4.85),
    ("[NH3+]C(Cc1cnc[nH]1)C(=O)NCC(=O)[O-] (stereo not drawn)", 6.67),
    ("Cc1cc(N)c(C)cn1", 9.68),
    ("N[C@@H](Cc1nc(I)[n-]c1I)C(=O)[O-]", 9.76),
]

Hi team, please reply with pKa for each item in this list.
1. CN(C)Cc1ccc(NC(=O)/C=N/[O-])cc1
2. C1CCN(CCCN2CCCC2)C1
3. Cn1cnc(C(=O)[O-])c1C(=O)[O-]
4. Cc1ccnc(NS(=O)(=O)c2ccc(N)cc2)n1
5. Cc1cc(-c2ccccc2)nn2ccnc12
6. CN(C)c1cccc2cccc([NH+](C)C)c12
7. Cn1cc(N)cn1
8. O=C([O-])[C@@H]1O[C@H](Oc2cccc3cccnc23)[C@@H](O)[C@H](O)[C@H]1O

[9.56, 10, 8, 2.08, 4.84, -9, 5.52, 4.62]

* * *

conditionDescription: basic group
quantityMeasured: pKa
Answers are plain numbers.

Worked examples follow.
# compound, quantityMeasured, testResult
measured = [
    ("CC[C@H]1CN2CCc3cc(OC)c(OC)cc3[C@@H]2C[C@@H]1CC=O", "pKa", 8.11),
    ("Nc1ccncn1", "pKa", 5.7),
    ("O=Cc1ncnc2nc[nH]c12", "pKa", 2.4),
    ("C[n+]1cnccc1[O-]", "pKa", 1.84),
    ("CC1=C(CC(C)NCC(O)c2ccc(N)cc2)CCC1(C)C (stereo not drawn)", "pKa", 9.01),
]

Hi team, please reply with pKa for each item in this list.
1. CC1NOCc2ccccc21 (stereo not drawn)
2. CNc1ccc(OC)cc1
3. Cn1cnc2ccccc21

1: 3.7; 2: 5.93; 3: 5.65

* * *

conditionDescription: acidic group
Decide by pKa: equal to or exceeding 5 means T, less means F.

# compound, labelValue
records = [
    ("O=[N+]([O-])c1cccc2c[n+](CCCO)ccc12", "T"),
    ("O=[N+]([O-])c1cccc(-c2ccc(O)cc2)c1", "T"),
    ("CCc1ccc(C(C)C)cc1O", "T"),
    ("CNS(=O)(=O)C(F)(F)F", "T"),
    ("O=C(O)[C@@H]1O[C@H](Oc2ccc3[nH+]c(O)ccc3c2)[C@@H](O)[C@H](O)[C@H]1O", "F"),
    ("NC(=O)Nc1ccc([N+](=O)[O-])cc1", "T"),
    ("O=C(O)c1cc(=O)cco1", "F"),
    ("CC(N)c1nnn[n-]1 (centres undefined)", "T"),
]

Exam item: decide whether the reported pKa for O=C(O)C1CCCC[NH2+]1 (centres undefined) is at least 5. F

Exam item: decide whether the reported pKa for `O=S(=O)(Cc1ccccc1)c1cnn[nH]1` is at least 5. T

* * *

conditionDescription: acidic group
Would you kindly list pKa for each of these compounds?

# compound, pKa
measured = [
    ("O=C(O)Cc1c[nH]c2ccccc12", 4.39),
    ("Cn1c(=S)[nH]c2cncnc21", 7.48),
    ("O=C1C[C@@H](C(=O)O)[C@@H](C(=O)O)O1", 2.26),
    ("[S-]c1ccncc1", 8.83),
    ("O=[N+]([O-])c1ccc(O)cc1", 7.13),
    ("Sc1cccnc1", 7.01),
]

Hi team, please reply with pKa for each item in this list.
1. Cc1csc(-c2ccc(NS(=O)(=O)c3ccc(N)cc3)cc2)n1
2. COc1cc2c(cc1O)[C@H]1Cc3cc(OC)c(OC)cc3[C@H](C2)N1C
3. Cn1c(=O)[nH]c(=O)c2[nH]cnc21

[8.5, 9.8, 8.49]

Hi team, please reply with pKa for each item in this list.
1. CC(=O)C(C(C)=O)C(C)C
2. CC(C)CNC(O)=S
3. O=C1Cc2c1ccc(O)c2Br
4. O=C1CCc2cc(I)ccc2C1
5. [O-]N=C1/C(=N/O)CCC/C1=N\O
6. Cc1cc(C)c(C)c(O)c1
7. CC(=O)S

[12.8, 0.38, 5.75, 12.4, 11.1, 10.6, 3.71]

Hi team, please reply with pKa for each item in this list.
1. O=C(O)c1cscn1
2. CC(=O)c1ccccc1NN=C1C(=O)CC(C)(C)CC1=O
3. Cc1ccc([C@H]2C[C@@H]2C(=O)O)cc1
4. O=C(O)c1ccco1
5. O=CC1c2ccccc2C(=O)c2ccccc21
6. O=[N+]([O-])c1ccc(S(=O)(=O)O)cc1

1. 3.64
2. 10.5
3. 4.6
4. 3.18
5. 6
6. -7.15

* * *

Would you kindly list pKa for each of these compounds?
conditionDescription: acidic group
Give bare numbers.

Worked examples follow.
# compound, pKa
data = [
    ("O=[N+]([O-])/C=C/c1ccc(O)cc1", 7.98),
    ("Cc1cc([N+](=O)[O-])ccc1C(=O)O", 2.91),
    ("Cn1cnc2nc([O-])[nH]c(=S)c21", 12.1),
    ("O=C(O)c1ccccc1-c1nnn[nH]1", 2.9),
    ("N#CC(CC(=O)O)Cc1ccccc1 (stereo not given)", 3.91),
]

Hi team, please reply with pKa for each item in this list.
1. O=C(O)/C=C/c1c[nH]c[nH+]1
2. Cn1cnc2[nH]c(=O)[nH]c(=O)c21
3. C[C@H]1CC[C@H]2[C@H](C)CC[C@@H](C(=O)O)[NH+]2C1
4. CC(C)CNC=S

[3.5, 8.45, 2, 12.8]

* * *

conditionDescription: basic group
Would you kindly list pKa for each of these compounds?
One number for each entry.

Worked examples follow.
# compound, testResult
records = [
    ("C[NH+](C)CCCNc1ccnc2cc([N+](=O)[O-])ccc12", 6.77),
    ("CCCNCc1ccc(C)cc1", 9.98),
    ("CCCCN1CCCCC1C(=O)Nc1c(C)cccc1C (stereo not drawn)", 7.27),
    ("N#CCN1CCOCC1", 2),
    ("CC1(C)CCCC(C)(C)N1", 11.2),
]

Hi team, please reply with pKa for each item in this list.
1. C[NH+](C)CCCN=C(c1ccccc1)c1ccccc1
2. Cc1cc(C)n(-c2cc(C)n(C)[nH+]2)n1
3. OCc1c[nH]cn1

1: 5.2; 2: -2.9; 3: 6.38

* * *

conditionDescription: basic group
quantityMeasured: pKa
Answers are plain numbers.

# molecule, pKa
measured = [
    ("c1c[nH+]c(Cc2nc(Cc3c[nH]c[nH+]3)c[nH]2)[nH]1", 3.94),
    ("Nc1n[nH]c(N)c1/N=N/c1ccc(C(=O)O)cc1", 3.4),
    ("CN(C)c1ccc[nH+]c1", -1.91),
    ("Cc1ccc2c(c1)NCCN2", 4.97),
    ("CCOc1cccc(N)c1", 4.15),
]

Hi team, please reply with pKa for each item in this list.
1. CC(C)(C)c1cccnc1
2. SCc1c[nH]cn1
3. Cc1cc([O-])[nH+]c([O-])n1
4. CCCCCNN
5. CCCCCCCCN
6. CCCc1ccc([C@@H]2CCC[NH+]2C)cn1
7. Clc1ccc(C2NCCS2)cc1 (stereo not drawn)

5.82
6.54
9.29
6.25
10.8
3.65
5.01

Hi team, please reply with pKa for each item in this list.
1. CN1[C@@H]2C[C@@H]3C[C@H]1[C@@H](O)[C@H]2O3
2. Clc1cccc(Nc2ccccc2)c1
3. COc1c(O)cccc1CN
4. CCC(=O)C(CCN1CCCCC1)(c1ccccc1)c1ccccc1

8.2
2.34
8.89
8.86

Hi team, please reply with pKa for each item in this list.
1. [S-]c1ncc2nc[nH]c2n1
2. CCN(CC)C(C)O (stereo not drawn)
3. CC(C)CCCC(C)N (stereo not drawn)
4. Cc1cc2cccnc2c2ncccc12
5. CN(C)Cc1cc(Cl)ccc1[O-]
6. CCN(C(C)C)C(C)C
7. Cc1cc(O)n(-c2ccccc2)n1
8. CC(N)CCCc1ccc(O)cc1 (stereo not drawn)

1. 7.15
2. 10.2
3. 10.3
4. 5.26
5. 11
6. 11.4
7. 1.07
8. 9.4

* * *

Would you kindly list pKa for each of these molecules?
conditionDescription: acidic group

# molecule, quantityMeasured, testResult
measured = [
    ("CCN(CC)C(=S)NC(=O)c1ccccc1", "pKa", 8.45),
    ("C=C(C)[C@H]1C[NH2+][C@H](C(=O)[O-])[C@H]1CC(=O)O", "pKa", 4.43),
    ("Cc1ccc(NC(=S)c2ccccc2)cc1", "pKa", 10.8),
    ("C#CC#CC#CCC(O)CCC(=O)O (stereo not drawn)", "pKa", 4.75),
    ("C=CC(Cl)C(=O)O (stereo not drawn)", "pKa", 2.54),
    ("O=C(O)C1c2ccccc2Oc2ccccc21", "pKa", 3.89),
    ("O=C/C(O)=C\\[O-]", "pKa", 13),
    ("CCCCCCCC[NH2+]CCC(=O)O", "pKa", 3.56),
    ("Cn1c(N)nc2nc[nH]c2c1=O", "pKa", 10.4),
    ("Cc1ccc(O)cc1C(=O)O", "pKa", 3.92),
]

Hi team, please reply with pKa for each item in this list.
1. O=C([O-])/C=C/C([O-])=C/C(=O)CC(=O)[O-]
2. O=C(O)c1ccccc1Cl

10.5
2.95
